System: CP237
measurement_notes: qHTS profiling for inhibitors of Plasmodium falciparum proliferation (AID 504749); also: nearly all actives have a fitted effect of over 60% in size
stated_conditions: P. falciparum in erythrocytes, SYBR Green DNA, 72 h; series mostly up to 28.7 µM
Inconclusive results are not listed. Activity calls are given as the source filed them. Calls follow the shape of the dose curve; as a rule, active = well fitted inhibition curve with a large enough effect; inconclusive = small, poorly fitted or top-dose-only effect; inactive = flat fitted curve, though single readings scatter.
# valid calls are true for active, false for inactive; nothing else

Worked examples follow.
CCC1=C(C)CN(C(=O)NCCc2ccc(S(=O)(=O)NC(=O)NC3CCC(C)CC3)cc2)C1=O (configuration not stated) | false
Clc1ccc(C(Cn2ccnc2)OCc2ccsc2Cl)c(Cl)c1 (configuration not stated) | true
O=C(O)CCNC(=O)c1ccc(N=Nc2ccc(O)c(C(=O)O)c2)cc1 | false
Cc1cccc(C)c1OCC(=O)N[C@@H](Cc1ccccc1)[C@@H](O)C[C@H](Cc1ccccc1)NC(=O)[C@H](C(C)C)N1CCCNC1=O | true
N=C(N)c1ccc2cc(OC(=O)c3ccc(N=C(N)N)cc3)ccc2c1 | true
Cc1cc(=O)oc2cc(O)ccc12 | false

Input line: GET /call?item= CCOC(=O)c1c(C)n(C)c2ccc(O)cc12 returns the recorded outcome of this test.
Output line: false

Input line: GET /call?item= O=C(NCCO[N+](=O)[O-])c1cccnc1 returns the recorded outcome of this test.
Output line: false
